Molecular target: Arginase-2, mitochondrial (Homo sapiens) (UniProt P78540)
Sequence (P78540 whole entry): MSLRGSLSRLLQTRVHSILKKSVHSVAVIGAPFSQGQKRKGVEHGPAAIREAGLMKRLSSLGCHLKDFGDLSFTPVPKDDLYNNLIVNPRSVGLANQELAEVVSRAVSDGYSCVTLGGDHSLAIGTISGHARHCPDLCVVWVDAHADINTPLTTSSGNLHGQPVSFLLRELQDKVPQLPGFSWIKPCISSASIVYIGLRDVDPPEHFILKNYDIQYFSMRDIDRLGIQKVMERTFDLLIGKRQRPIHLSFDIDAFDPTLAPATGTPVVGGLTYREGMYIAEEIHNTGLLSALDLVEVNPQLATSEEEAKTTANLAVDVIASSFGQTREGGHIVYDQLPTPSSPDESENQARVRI
Assay: in vitro enzyme assay to detect the production of urea directly proportional to the activity of Arginase II
Format: functional
Set-up: scale not given: in the data most compounds retested in dose-response had high values
Conditions: 33.3 µM
The entries below come with measured Percent Effect values attached.
quantity: Percent Effect (%)

compound	unit-name	data-value
c1ncn(CC2CCCN2Cc2cn3ccsc3n2)n1 (stereo unspecified)	%	-1.23
CCc1nc(C)c(C(=O)N2C[C@H]3CC[C@@H]2CN(S(=O)(=O)N(C)C)C3)s1	%	-2.08
CC1COCCN1C(=O)c1cccc(OCc2cscn2)c1 (stereo unspecified)	%	-4.1
Cc1csc(N2CCCN(C(=O)C(C(C)C)n3cncn3)CC2)n1 (stereo unspecified)	%	3.51
CCOc1ccc(Cl)c(C(=O)N2CCN(C(=O)c3ccoc3C)CC2)n1	%	-1.42
CN1CCOC(CNCc2coc(-c3cccs3)n2)C1 (stereo unspecified)	%	3.42
CCn1ccnc1CN1CCC(N(C)Cc2ncc(C)o2)C1 (stereo unspecified)	%	3.1
CCN(Cc1ccc2c(c1)OCCO2)S(=O)(=O)N(C)C(C)C	%	0.356
O=C(NCCNS(=O)(=O)c1ccc2c(c1)CCCC2)c1ccoc1	%	10.9
CCCC(Nc1c(C#N)c(=O)n(C)c(=O)n1C)c1ccc(F)cc1F (stereo unspecified)	%	4.18
c1cnc(NCc2cncc3c2CCN(Cc2cccs2)C3)nc1	%	2.1

---

Molecular target: Tyrosyl-tRNA synthetase, putative (Trypanosoma cruzi (strain CL Brener)) (UniProt Q4DSP6)
Sequence (whole entry): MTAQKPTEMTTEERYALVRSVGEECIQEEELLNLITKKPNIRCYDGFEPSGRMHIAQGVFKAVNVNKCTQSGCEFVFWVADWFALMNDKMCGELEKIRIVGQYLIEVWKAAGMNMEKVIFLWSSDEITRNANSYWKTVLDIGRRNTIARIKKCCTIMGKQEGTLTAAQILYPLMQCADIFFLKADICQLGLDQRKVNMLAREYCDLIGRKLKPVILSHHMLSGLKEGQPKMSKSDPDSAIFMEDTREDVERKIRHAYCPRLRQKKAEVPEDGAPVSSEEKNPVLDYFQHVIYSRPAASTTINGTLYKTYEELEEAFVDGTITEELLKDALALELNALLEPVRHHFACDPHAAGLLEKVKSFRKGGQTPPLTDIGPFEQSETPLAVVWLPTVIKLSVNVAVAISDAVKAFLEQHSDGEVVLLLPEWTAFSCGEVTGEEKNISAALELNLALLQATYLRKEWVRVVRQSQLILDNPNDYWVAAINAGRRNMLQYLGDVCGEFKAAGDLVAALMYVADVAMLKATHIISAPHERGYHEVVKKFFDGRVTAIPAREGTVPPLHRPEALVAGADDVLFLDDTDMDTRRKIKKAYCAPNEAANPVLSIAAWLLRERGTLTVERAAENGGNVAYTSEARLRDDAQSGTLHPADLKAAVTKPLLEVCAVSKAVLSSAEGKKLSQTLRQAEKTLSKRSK
Assay: Trypanosoma cruzi tyrosyl tRNA synthetase (TcYRS) _High Tyrosine SOP
Format: functional
Design: scale not given: in the data most compounds retested in dose-response had high values
Details: 30 µM
quantity: Percent Effect (%)

compound	data-value
CCC1=N[C@@]2(CC[C@@H]3CN(C(=O)NCc4ccccc4)C[C@@H]32)C(=O)N1	5.79
COc1ccc(C)cc1CN1CCCC1Cn1nc(C)nc1C (stereo unspecified)	8.33
O=C(COc1ccc2c(c1)CCC2)NS(=O)(=O)c1cncc(Br)c1	-3.35
CCC1CCCCCN1C(=O)c1nnc2ccccc2c1N (stereo unspecified)	0
Cc1nn(C)c(C)c1C(C)NC(=O)Nc1cccnc1N1CCCC1 (stereo unspecified)	-0.493
c1nc2c(c(C3CC3)n1)CCN(CC1CCOC1)CC2 (stereo unspecified)	5.41
